Molecular target: human CB2 receptor (Homo sapiens)
Experiment: Binding assay, cannabinoid CB2 receptor ([3H]-CP-55,940 displacement)
Settings: Cannabinoid CB2 Receptor Binding IC50, human CB2 receptor, SK-N-MC cell membranes, radioligand CP-55,940 0.2 nM
pIC50: −log10 of the molar value.

molecule	pIC50
O=C(NCC12CC3CC(CC(C3)C1)C2)c1nn(-c2ccc(F)cc2)c2c1CCCC2CCc1ccccc1 (centres unmarked)	6.70
O=C(NC1CCCCCCC1)c1nn(Cc2ccccc2)c2c1CCCC2	8.41
CC(NC(=O)c1nn(C2CCCCC2)c2c1CCCC2)C1CCCCC1 (centres unmarked)	7.70
CCOC(=O)C1CCCc2c1c(C(=O)NC1C3CC4CC(C3)CC1C4)nn2C1CCCCC1 (centres unmarked)	6.30
CC12CCC(C1)C(C)(C)C2NC(=O)c1nn(C2CCCCCC2)c2c1CCCC2 (centres unmarked)	8.85
CC(c1ccccc1)n1nc(C(=O)NC2C3(C)CCC(C3)C2(C)C)c2c1CCCC2 (centres unmarked)	8.25
CC(c1ccccc1)n1nc(C(=O)NC2C3CC4CC(C3)CC2C4)c2c1CCCC2 (centres unmarked)	8.40
CC12CCC(C1)C(C)(C)C2NC(=O)c1nn(-c2ccc(Cl)cc2Cl)c2c1CCCC2 (centres unmarked)	8.77

====

Each entry below carries its recorded IC50.
Target: human CB1 receptor (Homo sapiens)
Construct: expressed in transfected cells; host or cells: SK-N-MC cells, stably transfected with pcDNA3 CB-1 (human); semi-purified membrane pellet
Sequence (P21554 whole entry): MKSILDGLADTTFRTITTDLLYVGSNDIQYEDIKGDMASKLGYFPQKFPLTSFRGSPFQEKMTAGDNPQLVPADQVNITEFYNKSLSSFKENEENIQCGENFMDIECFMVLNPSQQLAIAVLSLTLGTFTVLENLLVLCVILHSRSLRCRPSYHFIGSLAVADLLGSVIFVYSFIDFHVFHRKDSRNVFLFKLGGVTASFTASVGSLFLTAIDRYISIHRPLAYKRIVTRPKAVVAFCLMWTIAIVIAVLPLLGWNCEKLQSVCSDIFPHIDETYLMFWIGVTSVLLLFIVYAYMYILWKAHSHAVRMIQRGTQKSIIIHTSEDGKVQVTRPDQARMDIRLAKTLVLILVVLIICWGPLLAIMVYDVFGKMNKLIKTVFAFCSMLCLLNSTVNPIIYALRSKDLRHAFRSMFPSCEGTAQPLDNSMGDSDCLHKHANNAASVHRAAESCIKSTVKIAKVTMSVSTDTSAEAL
Assay: biochemical
Type: binding

compound	IC50 (nM)
COC(=O)C(Cc1ccc(O)cc1)NC(=O)c1c2c(nn1-c1ccc(OC)cc1)CCCC2 (stereo not drawn) [compound 6]	6750
CC(c1ccccc1)n1nc(C(=O)N[C@@H](C)C2CCCCC2)c2c1CCCC2 (mixture of isomers) [Cpd 249]	50
COc1ccccc1C(Cc1nn(C2CCCCC2)c2c1CCCC2)C(=O)NC1C2(C)CCC(C2)C1(C)C (stereo not drawn) [Cpd 333]	5700
O=C(NN1CCCCCC1)c1nn(-c2ccc(Cl)cc2Cl)c2c1CCC/C2=C\c1ccsc1 [compound 348]	11
O=C(NN1CCCCC1)c1nn(-c2ccc(Cl)cc2Cl)c2c1CCCC2=Cc1ccc(F)cc1 [Cpd 297]	13
CCOC(=O)[C@H]1C2CCC(C2)[C@H]1NC(=O)c1nn(-c2ccc(Cl)cc2Cl)c2c1CCCC2 (stereo partly drawn) [compound 130]	400
CCOC(=O)[C@H]1C2C=CC(C2)[C@H]1NC(=O)c1nn(Cc2ccccc2)c2c1CCCC2 (stereo partly drawn) [compound 276]	135
CC12CCC(C1)C(C)(C)C2NC(=O)c1nn(C2CCCCCC2)c2c1CCCC2 (stereo not drawn) [compound 74]	15
C[C@H](NC(=O)c1nn(-c2ccc(Cl)cc2Cl)c2c1CCCC2=Cc1ccc(Cl)cc1)C1CCCCC1 [compound 321]	230
CC12CCC(C1)C(C)(C)C2NC(=O)c1nn(C2CCCCC2)c2c1CC(O)CC2 (stereo not drawn) [Cpd 93]	1150
O=C(CCc1nn(C2CCCCC2)c2c1CCCC2)N[C@@H]1CCCC[C@H]1CO [compound 51]	15200
O=C(NN1CCOCC1)c1nn(-c2ccc(Cl)cc2Cl)c2c1CCC/C2=C\c1ccc(F)cc1 [compound 298]	64
C[C@@H](NC(=O)c1nn(-c2ccc(Cl)cc2Cl)c2c1CCCC2=Cc1ccsc1)C1CCCCC1 [compound 351]	12
CCOC(=O)[C@H]1C2CCC(C2)[C@H]1NC(=O)c1nn(-c2ccc(F)cc2)c2c1CCCC2CCc1ccccc1 (stereo partly drawn) [compound 154]	60
CCOC(=O)[C@@H]1C2C=CC(C2)[C@@H]1NC(=O)c1c2c(nn1Cc1ccccc1)CCCC2 (stereo partly drawn) [compound 277]	1300
CCOC(=O)C1CCc2c(C(=O)NC(C)C34CC5CC(CC(C5)C3)C4)nn(C3CCCCC3)c2C1 (stereo not drawn) [compound 69]	220
Cc1ccc(S(=O)(=O)NC2CCc3c(c(C(=O)NC4C5CC6CC(C5)CC4C6)nn3C3CCCCC3)C2)cc1 (stereo not drawn) [compound 105]	8500
CC12CCC(C1)C(C)(C)C2NC(=O)CCc1nn(C2CCCCC2)c2c1CCCC2 (stereo not drawn) [Cpd 50]	255
CC1CCCC(C)N1NC(=O)c1nn(-c2ccc(Cl)cc2Cl)c2c1CCCC2=Cc1ccoc1 (stereo not drawn) [compound 362]	38
CCOC(=O)[C@H]1C2C=CC(C2)[C@H]1NC(=O)c1c2c(nn1Cc1ccccc1)CCCC2 (stereo partly drawn) [compound 275]	323
CC(NC(=O)c1nn(C2CCCCC2)c2c1CC(C(=O)O)CC2)C12CC3CC(CC(C3)C1)C2 (stereo not drawn) [compound 133]	12000
COC(=O)C(Cc1ccc(OCc2ccccc2)cc1)NC(=O)c1nn(C2CCCCC2)c2c1CCCC2 (stereo not drawn) [compound 81]	490
C[C@@H](NC(=O)c1nn(-c2ccc(Cl)cc2Cl)c2c1CCC/C2=C\c1ccc(Br)cc1)c1ccccn1 [compound 381]	15
CCOC(=O)C1CC=CCC1NC(=O)c1nn(C2CCCCC2)c2c1CCCC2 (stereo not drawn) [compound 301]	24
CCOC(=O)C1CCCc2c1c(C(=O)NC(C)C13CC4CC(CC(C4)C1)C3)nn2C1CCCCC1 (stereo not drawn) [compound 72]	8400
O=C(N[C@@H]1CCCC[C@H]1CO)c1nn(C2CCCCC2)c2c1CCCC2 [compound 49]	150
CC[C@@H](NC(=O)c1nn(C2CCCCC2)c2c1CCCC2)c1ccccc1 [compound 204]	800

====

Target: human CB2 receptor (Homo sapiens, UniProt P34972)
Sequence (P34972 whole entry): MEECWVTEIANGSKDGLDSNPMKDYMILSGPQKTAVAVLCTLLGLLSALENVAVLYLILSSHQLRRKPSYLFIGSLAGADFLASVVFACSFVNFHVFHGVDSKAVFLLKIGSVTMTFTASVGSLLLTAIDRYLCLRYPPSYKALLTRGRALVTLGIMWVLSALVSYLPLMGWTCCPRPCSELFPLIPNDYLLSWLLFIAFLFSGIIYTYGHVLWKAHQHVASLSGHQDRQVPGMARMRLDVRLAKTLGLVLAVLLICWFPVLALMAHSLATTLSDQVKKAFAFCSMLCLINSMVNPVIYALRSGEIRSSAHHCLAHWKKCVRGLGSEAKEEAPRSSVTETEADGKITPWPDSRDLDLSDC
Assay: Binding assay, cannabinoid CB2 receptor ([3H]-CP-55,940 displacement)
Settings: Cannabinoid CB2 Receptor Binding IC50, human CB2 receptor, SK-N-MC cell membranes, radioligand CP-55,940 0.2 nM
pIC50: −log10 of the molar value.

molecule	pIC50
CCOC(=O)C1CC=CCC1NC(=O)c1nn(Cc2ccccc2)c2c1CCCC2 (stereo not shown)	8.00
CCOC(=O)[C@H]1CCc2c(c(C(=O)NC3C4CC5CC(C4)CC3C5)nn2C2CCCCC2)C1 (stereo partly shown)	7.85
CCOC(=O)C1CCc2c(C(=O)NC3C4(C)CCC(C4)C3(C)C)nn(C3CCCCC3)c2C1 (stereo not shown)	7.80
CCOC(=O)C1CCCc2c1c(C(=O)NC1C3(C)CCC(C3)C1(C)C)nn2C1CCCCC1 (stereo not shown)	6.53
C[C@H](NC(=O)/C=C/c1nn(Cc2ccccc2)c2c1CCCC2)c1ccccc1	5.14
O=C(NCC12CC3CC(CC(C3)C1)C2)c1c2c(nn1-c1ccc(Cl)cc1Cl)CCCC2	6.40
CC(NC(=O)c1nn(C2CCCCC2)c2c1CCCC2)C1CCCCCC1 (stereo not shown)	7.05
O=C(NC1C2CC3CC(C2)CC1C3)c1nn(Cc2ccccc2)c2c1CC(C(=O)O)CC2 (stereo not shown)	6.52
COC(=O)C(Cc1c[nH]c2ccccc12)NC(=O)c1nn(Cc2ccccc2)c2c1CCCC2 (stereo not shown)	7.70
CCOC(=O)c1c(NC(=O)c2nn(C3CCCCC3)c3c2CCCC3)sc2c1CCCCC2	5.10

====

Biological target: human CB2 receptor (Homo sapiens, UniProt P34972)
Assay: Functional cell-based assay, CB2 receptor mediated change in CRE β-gal expression (agonist / inverse agonist)
Conditions: SK-N-MC cells, forskolin, agonist, read-out: CB2 Receptor Functional Agonist EC50
pEC50: −log10 of the molar value.

compound	pEC50
CC12CCC(C1)C(C)(C)[C@@H]2NC(=O)c1nn(Cc2ccccc2)c2c1CCCC2 (some centres unmarked)	10.28
CC1CCCc2c(C(=O)NC3C4(C)CCC(C4)C3(C)C)nn(-c3ccc(F)cc3)c21 (centres unmarked)	8.39
O=C(NC12CC3CC(CC(C3)C1)C2)c1nn(C2CCCCC2)c2c1CCCC2	7.54
O=C(NN1CCCCCC1)c1nn(C2CCCCC2)c2c1CCCC2	8.00
COC(=O)C(Cc1ccc(O)cc1)NC(=O)c1nn(Cc2ccccc2)c2c1CCCC2 (centres unmarked)	10.00

====

Target: human CB1 receptor (Homo sapiens)
Construct: expressed in transfected cells; host or cells: SK-N-MC cells, stably transfected with pcDNA3 CB-1 (human); semi-purified membrane pellet
Assay: biochemical
Assay type: binding
Could you mark each record label 1 if its IC50 falls strictly under 200 nM, and label 0 if it equals or exceeds it?

molecule	test_target	cat
CC12CCC(C1)C(C)(C)C2NC(=O)c1nn(-c2ccc(F)cc2)c2c1CCCC2c1ccccc1 (stereo not drawn)	human CB1 receptor (Homo sapiens)	label 0
CC(c1ccccc1)n1nc(C(=O)NC2C3(C)CCC(C3)C2(C)C)c2c1CCCC2 (stereo not drawn)	human CB1 receptor (Homo sapiens)	label 1
CCOC(=O)[C@@H]1CCC[C@@H]1NC(=O)c1nn(C2CCCCC2)c2c1CCCC2Cl (stereo partly drawn)	human CB1 receptor (Homo sapiens)	label 0
O=C(Nc1nn(C2CCCCC2)c2c1CCCC2)C1CCCCC1	human CB1 receptor (Homo sapiens)	label 0
O=C(NCC12CC3CC(CC(C3)C1)C2)c1nn(Cc2ccccc2)c2c1CCCC2	human CB1 receptor (Homo sapiens)	label 0
CC12CCC(C1)C(C)(C)[C@H]2NC(=O)c1nn(C2CCCCC2)c2c1CCCC2 (stereo partly drawn)	human CB1 receptor (Homo sapiens)	label 1
CCOC(=O)[C@H]1C2C=CC(C2)[C@H]1NC(=O)c1nn(C2CCCCC2)c2c1CCCC2 (stereo partly drawn)	human CB1 receptor (Homo sapiens)	label 0
O=C(NC12CC3CC(CC(C3)C1)C2)c1c2c(nn1-c1ccc(Cl)cc1Cl)CCCC2	human CB1 receptor (Homo sapiens)	label 0
CCOC(=O)C1CCCc2c1c(C(=O)NC1C3CC4CC(C3)CC1C4)nn2C1CCCCC1 (stereo not drawn)	human CB1 receptor (Homo sapiens)	label 0
